# testName: Study 1: single dose cross-over pharmacokinetics, oral vs intracolonic Na.MPA
# Set-up: species or system male beagle dogs
# recordedConditions: male, beagle, dog, in vivo, po, 180 mg
attributeMeasured: AUC(0-t)

Lookup: Using the record for COc1c(C)c2c(c(O)c1C/C=C(\C)CCC(=O)O)C(=O)OC2 [Na•MPA, sodium mycophenolate] , report its AUC(0-t).
Found: 36400 ng·h/mL

====

# testName: Study 1: single dose cross-over pharmacokinetics, oral vs intracolonic Na.MPA
# Design: species or system male beagle dogs
# recordedConditions: male, beagle, dog, in vivo, po, 180 mg
attributeMeasured: AUC(0-inf) (ng·h/mL)
Express the result in ng·h/mL but write the number alone.

Lookup: Using the record for COc1c(C)c2c(c(O)c1C/C=C(\C)CCC(=O)O)C(=O)OC2 [Na•MPA, sodium mycophenolate] , report its AUC(0-inf).
Found: 45700

====

# testName: Study 1: single dose cross-over pharmacokinetics, oral vs intracolonic Na.MPA
# Design: species or system male beagle dogs
# recordedConditions: male, beagle, dog, in vivo, 180 mg
attributeMeasured: MRT last (h)
Express the result in h but write the number alone.

Lookup: Using the record for COc1c(C)c2c(c(O)c1C/C=C(\C)CCC(=O)O)C(=O)OC2 [Na•MPA, sodium mycophenolate] , report its MRT last.
Found: 2.76

====

# testName: Study 1: single dose cross-over pharmacokinetics, oral vs intracolonic Na.MPA
# Set-up: species or system male beagle dogs
# recordedConditions: male, beagle, dog, in vivo, po, 180 mg
# Protocol: Two single dose cross-over studies were conducted using a canine model (male beagle dogs) to evaluate the potential of an enteric coated-extended release sodium mycophenolate formulation (“EC-ER-Na.MP”). […] Each dog received a total dose of 180 mg of MPA for each dose. […] Plasma concentrations of MPA, MPAG, and AcMPAG were determined with a qualified LC-MS/MS method, and pharmacokinetic parameters were determined with WinNonlin v.6.4 software.
attributeMeasured: Cmax (ng/mL)
Express the result in ng/mL but write the number alone.

Lookup: Using the record for COc1c(C)c2c(c(O)c1C/C=C(\C)CCC(=O)O)C(=O)OC2 [MPA, Mycophenolic acid] , report its Cmax.
Found: 27300

====

# testName: Study 1: single dose cross-over pharmacokinetics, oral vs intracolonic Na.MPA
# Set-up: species or system male beagle dogs
# recordedConditions: male, beagle, dog, in vivo, 180 mg
attributeMeasured: Cmax (ng/mL)
Express the result in ng/mL but write the number alone.

Lookup: Using the record for COc1c(C)c2c(c(O)c1C/C=C(\C)CCC(=O)O)C(=O)OC2 , report its Cmax.
Found: 29500

====

# testName: Study 1: single dose cross-over pharmacokinetics, oral vs intracolonic Na.MPA
# Parameters: species or system male beagle dogs
# recordedConditions: male, beagle, dog, in vivo, 180 mg
attributeMeasured: AUC(0-t)
Your reply should be a number followed by the unit it is expressed in.

Lookup: Using the record for COc1c(C)c2c(c(O)c1C/C=C(\C)CCC(=O)O)C(=O)OC2 [Na•MPA, sodium mycophenolate] , report its AUC(0-t).
Found: 31000 ng·h/mL

====

# testName: Study 1: single dose cross-over pharmacokinetics, oral vs intracolonic Na.MPA
# Set-up: species or system male beagle dogs
# recordedConditions: male, beagle, dog, in vivo, 180 mg
attributeMeasured: AUC(0-inf) (ng·h/mL)
Express the result in ng·h/mL but write the number alone.

Lookup: Using the record for COc1c(C)c2c(c(O)c1C/C=C(\C)CCC(=O)O)C(=O)OC2 [Na•MPA, sodium mycophenolate] , report its AUC(0-inf).
Found: 31900

====

# testName: Study 1: single dose cross-over pharmacokinetics, oral vs intracolonic Na.MPA
# Parameters: species or system male beagle dogs
# recordedConditions: male, beagle, dog, in vivo, po, 180 mg
# Method: Two single dose cross-over studies were conducted using a canine model (male beagle dogs) to evaluate the potential of an enteric coated-extended release sodium mycophenolate formulation (“EC-ER-Na.MP”). […] Each dog received a total dose of 180 mg of MPA for each dose. […] Plasma concentrations of MPA, MPAG, and AcMPAG were determined with a qualified LC-MS/MS method, and pharmacokinetic parameters were determined with WinNonlin v.6.4 software.
attributeMeasured: half-life (h)
Express the result in h but write the number alone.

Lookup: Using the record for COc1c(C)c2c(c(O)c1C/C=C(\C)CCC(=O)O)C(=O)OC2 , report its half-life.
Found: 4.49
